# pIC50 measurements, system: Melanocortin receptor 4 (Homo sapiens)
# Sequence (P32245 whole entry): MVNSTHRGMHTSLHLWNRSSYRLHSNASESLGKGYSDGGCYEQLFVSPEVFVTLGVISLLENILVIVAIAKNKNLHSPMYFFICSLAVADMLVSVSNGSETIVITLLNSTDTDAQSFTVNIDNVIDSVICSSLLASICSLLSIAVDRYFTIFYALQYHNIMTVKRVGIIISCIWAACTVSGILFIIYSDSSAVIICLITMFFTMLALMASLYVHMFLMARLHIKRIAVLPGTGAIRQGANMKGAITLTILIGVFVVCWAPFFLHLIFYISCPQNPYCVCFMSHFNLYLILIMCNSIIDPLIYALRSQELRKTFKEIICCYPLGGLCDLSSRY
Remember the convention: pIC50 equals -log10 of concentration in molar.

# Query smiles, pIC50
rows = [
    ("CC(=O)N[C@@H]1C(=O)N[C@@H](CCC(=O)O)C(=O)N[C@@H](Cc2c[nH]cn2)C(=O)N[C@H](Cc2ccc3ccccc3c2)C(=O)N[C@@H](CCCN=C(N)N)C(=O)N[C@@H](Cc2c[nH]c3ccccc23)C(=O)N[C@H](C(=O)N2CCC[C@H]2C(=O)N2CCC[C@H]2C(=O)N[C@@H](CCCCN)C(=O)N[C@@H](CC(=O)O)C(N)=O)CSSC1(C)C", 6.12),
]

Then there is this molecule:
QUERY: Fill in pIC50 for `CC(=O)N[C@@H]1CSSC[C@@H](C(=O)N2CCC[C@H]2C(=O)N2CCC[C@H]2C(=O)N[C@@H](CCCCN)C(=O)N[C@@H](CC(=O)O)C(N)=O)NC(=O)[C@H](Cc2c[nH]c3ccccc23)NC(=O)[C@H](CCCNC(=N)N)NC(=O)[C@@H](Cc2ccccc2)NC(=O)[C@H](Cc2c[nH]cn2)NC(=O)[C@H](CCC(=O)O)NC1=O` tested with Melanocortin receptor 4 (Homo sapiens).
RESULT: 4.43
